- System: SYO-1
- protocol-description: relative viability vs DMSO control (72 h) (fraction); higher = more viable cells
- cond: 0.04115 µM
Items are presented alongside their recorded relative viability.
Lab note: jot the number down without any unit.

CC1(C)CNc2cc(NC(=O)c3cccnc3NCc3ccncc3)ccc21    0.914

*Q* Request body: readout relative viability, system SYO-1, query CC(C)(C)c1cc(NC(=O)Nc2ccc(-c3cn4c(n3)sc3cc(OCCN5CCOCC5)ccc34)cc2)no1 . Return the value.
*A* 0.923

*Q* Request body: readout relative viability, system SYO-1, query C=CC(=O)N1CCC[C@@H](n2nc(-c3ccc(Oc4ccccc4)cc3)c3c(N)ncnc32)C1 . Return the value.
*A* 0.892

* * *

- System: HT1080
- protocol-description: relative viability vs DMSO control (72 h) (fraction); higher = more viable cells
- cond: 0.00152 µM
Items are presented alongside their recorded relative viability.
Lab note: jot the number down without any unit.

Take a look at these entries with their results.
C=CC(=O)N1CCC[C@@H](n2nc(-c3ccc(Oc4ccccc4)cc3)c3c(N)ncnc32)C1 [Ibrutinib]    1.1
Cc1ccc(F)c(NC(=O)Nc2ccc(-c3cccc4[nH]nc(N)c34)cc2)c1 [Linifanib]    1.07
Cc1cc(C)c(/C=C2\C(=O)Nc3ccccc32)[nH]1 [Semaxanib]    0.94
CC1(C)CNc2cc(NC(=O)c3cccnc3NCc3ccncc3)ccc21 [Motesanib]    1.03
CCc1cc2c(cc1N1CCC(N3CCOCC3)CC1)C(C)(C)c1[nH]c3cc(C#N)ccc3c1C2=O [Alectinib]    1.06
COc1c(OCCCN2CCOCC2)ccc2c1N=C(NC(=O)c1cnc(N)nc1)N1CCN=C21 [Copanlisib]    1.12

The record that follows has no relative viability shown yet.
*Q* Which relative viability value belongs to CCCS(=O)(=O)Nc1ccc(F)c(C(=O)c2c[nH]c3ncc(-c4ccc(Cl)cc4)cc23)c1F [Vemurafenib] ?
*A* 1.09

* * *

- Test system: A204
- protocol-description: relative viability vs DMSO control (72 h) (fraction); higher = more viable cells
- cond: 0.00152 µM
parameter: relative viability
Lab note: jot the number down without any unit.

C[C@@H]1CCN(C(=O)CC#N)C[C@@H]1N(C)c1ncnc2[nH]ccc12 [Tofacitinib]    1.04
CC(=O)Nc1cccc(-n2c(=O)n(C3CC3)c(=O)c3c(Nc4ccc(I)cc4F)n(C)c(=O)c(C)c32)c1 [Trametinib]    1.09
CN1CCC(COc2cnc(-c3cccc(Cn4nc(-c5cccc(C#N)c5)ccc4=O)c3)nc2)CC1 [Tepotinib]    1.1

*Q* Which relative viability value belongs to Cc1cnc(Nc2ccc(OCCN3CCCC3)cc2)nc1Nc1cccc(S(=O)(=O)NC(C)(C)C)c1 [Fedratinib] ?
*A* 1.13

* * *

Items are presented alongside their recorded relative viability.
- Test system: RD-ES
- protocol-description: relative viability vs DMSO control (72 h) (fraction); higher = more viable cells
- cond: 1.111 µM
Lab note: jot the number down without any unit.

Take a look at these entries with their results.
COc1cc2nccc(Oc3ccc(NC(=O)Nc4cc(C)on4)c(Cl)c3)c2cc1OC [Tivozanib]    0.981
CN1CCC(COc2cnc(-c3cccc(Cn4nc(-c5cccc(C#N)c5)ccc4=O)c3)nc2)CC1 [Tepotinib]    0.969
CC[C@H](Nc1ncnc2[nH]cnc12)c1nc2cccc(F)c2c(=O)n1-c1ccccc1 [Idelalisib]    0.909
CC(=O)Nc1cccc(-n2c(=O)n(C3CC3)c(=O)c3c(Nc4ccc(I)cc4F)n(C)c(=O)c(C)c32)c1 [Trametinib]    0.978
N#CC[C@H](C1CCCC1)n1cc(-c2ncnc3[nH]ccc23)cn1 [Ruxolitinib]    0.939

*Q* Request body: readout relative viability, system RD-ES, query C[C@@H]1CCN(C(=O)CC#N)C[C@@H]1N(C)c1ncnc2[nH]ccc12 [Tofacitinib] . Return the value.
*A* 0.955

* * *

- Tested on: SW1353
- protocol-description: relative viability vs DMSO control (72 h) (fraction); higher = more viable cells
- cond: 0.3704 µM
parameter: relative viability
Lab note: jot the number down without any unit.

Take a look at these entries with their results.
O=C(Cc1ccc(-c2ccc(OCCN3CCOCC3)cc2)cn1)NCc1ccccc1    0.446
CCCS(=O)(=O)Nc1ccc(F)c(C(=O)c2c[nH]c3ncc(-c4ccc(Cl)cc4)cc23)c1F    0.981
COc1cc2c(Oc3ccc4[nH]c(C)cc4c3F)ncnc2cc1OCCCN1CCCC1    0.848
CNC(=O)c1cc(Oc2ccc(NC(=O)Nc3ccc(Cl)c(C(F)(F)F)c3)c(F)c2)ccn1    0.996
CC1(C)CNc2cc(NC(=O)c3cccnc3NCc3ccncc3)ccc21    0.964

*Q* Request body: readout relative viability, system SW1353, query CCN1CCN(Cc2ccc(Nc3ncc(F)c(-c4cc(F)c5nc(C)n(C(C)C)c5c4)n3)nc2)CC1 . Return the value.
*A* 0.74

*Q* Request body: readout relative viability, system SW1353, query C[C@@H]1COCCN1c1cc(-c2ccnn2C)c2ccnc(-c3ccn[nH]3)c2n1 . Return the value.
*A* 0.624

*Q* Request body: readout relative viability, system SW1353, query C[C@]1(O)C[C@@H](c2nc(-c3ccc4ccc(-c5ccccc5)nc4c3)c3c(N)nccn32)C1 . Return the value.
*A* 0.967

*Q* Request body: readout relative viability, system SW1353, query CC(C)N1CCN(Cc2cnc(-c3cc(-c4cccc5[nH]ccc45)cc4[nH]ncc34)o2)CC1 . Return the value.
*A* 0.914

* * *

- System: RD-ES
- protocol-description: standardised AUC of viability dose-response curve (72 h) (fraction (0-1)); higher = less growth inhibition (more resistant)
parameter: standardised AUC
Lab note: jot the number down without any unit.

Cc1nc(NC(=O)N2CCC[C@H]2C(N)=O)sc1-c1ccnc(C(C)(C)C(F)(F)F)c1    0.793

*Q* Which standardised AUC value belongs to CC(C)NC(=O)C1CCC(n2c(NC(=O)c3ccc(F)cc3)nc3ccc(CN4CCC(C(C)(C)O)CC4)cc32)CC1 (stereo not given) ?
*A* 0.791

*Q* Which standardised AUC value belongs to Cc1nc(-c2cn3c(n2)-c2ccc(-c4cnn(C(C)(C)C(N)=O)c4)cc2OCC3)n(C(C)C)n1 ?
*A* 0.675

*Q* Which standardised AUC value belongs to CCN1CCN(Cc2ccc(Nc3ncc(F)c(-c4cc(F)c5nc(C)n(C(C)C)c5c4)n3)nc2)CC1 ?
*A* 0.734

*Q* Which standardised AUC value belongs to CNC(=O)c1ccc(-c2cnc3ncc(Cc4ccc5ncccc5c4)n3n2)cc1F ?
*A* 1

* * *

- Test system: HT1080
- protocol-description: relative viability vs DMSO control (72 h) (fraction); higher = more viable cells
- cond: 0.00457 µM
Items are presented alongside their recorded relative viability.
Lab note: jot the number down without any unit.

Take a look at these entries with their results.
CN1CCN(c2ccc3nc(-c4c(N)c5c(F)cccc5[nH]c4=O)[nH]c3c2)CC1 [Dovitinib]    1.1
Cc1cc(C)c(/C=C2\C(=O)Nc3ccccc32)[nH]1 [Semaxanib]    0.945
COCc1c(-c2cc3cc(C)cc(OC)c3s2)c2c(N)ncnn2c1CN1CCNC(=O)C1 [Rogaratinib]    1.04
O=C(Cc1ccc(-c2ccc(OCCN3CCOCC3)cc2)cn1)NCc1ccccc1 [KX2-391]    1.1

The record that follows has no relative viability shown yet.
*Q* Which relative viability value belongs to CNC(=O)c1cc(Oc2ccc(NC(=O)Nc3ccc(Cl)c(C(F)(F)F)c3)c(F)c2)ccn1 [Regorafenib] ?
*A* 1.09

* * *

Items are presented alongside their recorded relative viability.
- Test system: SK-ES-1
- protocol-description: relative viability vs DMSO control (72 h) (fraction); higher = more viable cells
- cond: 0.04115 µM
Lab note: jot the number down without any unit.

Cc1cc(C)c(/C=C2\C(=O)Nc3ccccc32)[nH]1 [Semaxanib]    0.999
COc1cc2/c(=N/c3ccc(Br)cc3F)nc[nH]c2cc1OCC1CCN(C)CC1 [Vandetanib]    0.989

*Q* Which relative viability value belongs to Cc1ccc(NC(=O)c2ccc(CN3CCN(C)CC3)cc2)cc1Nc1nc(-c2cccnc2)cs1 [Masitinib] ?
*A* 1.01

* * *

Items are presented alongside their recorded relative viability.
- System: KHOS-240S
- protocol-description: relative viability vs DMSO control (72 h) (fraction); higher = more viable cells
- cond: 0.1235 µM
Where a name gives a salt, the structure may show the parent alone.
Lab note: jot the number down without any unit.

COc1cccc2c1C(=O)c1c(O)c3c(c(O)c1C2=O)C[C@@](O)(C(=O)CO)C[C@@H]3O[C@H]1C[C@H](N)[C@H](O)[C@H](C)O1 [Doxorubicin Hydrochloride]    0.459
Cc1cc(Nc2ncnc3ccc(NC4=NC(C)(C)CO4)cc23)ccc1Oc1ccn2ncnc2c1 [Tucatinib]    1.08
CO[C@H]1C[C@@H]2CC[C@@H](C)[C@@](O)(O2)C(=O)C(=O)N2CCCC[C@H]2C(=O)O[C@H]([C@H](C)C[C@@H]2CC[C@@H](OP(C)(C)=O)[C@H](OC)C2)CC(=O)[C@H](C)/C=C(\C)[C@@H](O)[C@@H](OC)C(=O)[C@H](C)C[C@H](C)/C=C/C=C/C=C/1C [Ridaforolimus]    0.878

The record that follows has no relative viability shown yet.
*Q* Request body: readout relative viability, system KHOS-240S, query CCCS(=O)(=O)Nc1ccc(F)c(C(=O)c2c[nH]c3ncc(-c4ccc(Cl)cc4)cc23)c1F [Vemurafenib] . Return the value.
*A* 1.07
